Parameter: viability at 48 h, 25 µM. Scope: all listed entries.
# Method summary: in vitro
# Assay context: human, hek293t cells
Quantity measured: viability at 48 h, 25 µM (%)

1. Cc1nsc(N2CCN(C(=O)C(C)Cl)CC2)c1C#N (centres unmarked) [6-H15]	91.4
2. CCOC(=O)c1c(NC(=O)CCl)sc(C)c1C [4-O15]	57
3. Cn1ccc(-c2nc(CNC(=O)CCl)cs2)n1 [6-B09]	1.33
4. C=CC(=O)NCC1CN(Cc2cccc(C)c2)CCO1 (centres unmarked) [3-A05]	41
5. CC(Cl)C(=O)N1CCc2ncccc2C1 (centres unmarked) [7-I19]	98.1
6. CC(=O)NCCc1ccc(C(=O)CCl)s1 [10-P03]	64.9
7. CCCCNC(=O)C(C#N)=Cc1cc(C)cc(C)c1 [9-C03]	122
8. CSc1ccccc1NC(=O)CN(C)C(=O)CCl [4-L03]	0.451
9. CC(Cl)C(=O)N[C@@H]1CCc2c(C#N)cccc21 (some centres unmarked) [6-P14]	114
10. N#Cc1c(NC(=O)CCl)oc(-c2cccs2)c1-c1cccs1 [6-I09]	28.5
11. CCOc1ccc(-n2c(C)cc(C(=O)CCl)c2C)cc1 [10-K08]	0.112
12. C=CC(=O)NCC1CCCC1N1CCCS1(=O)=O (centres unmarked) [3-L13]	78.9
13. Cc1ccc(C)c(CN(CCO)C(=O)CCl)c1 [5-K20]	2.44
14. C=CC(=O)NCc1nnc(COC)[nH]1 [3-F10]	102
15. N#CC(=Cc1cnc(-c2ccccc2)nc1)C(=O)NCc1ccco1 [9-M14]	143
16. CCC(NC(=O)CCl)c1ccc(Cl)cc1 (centres unmarked) [6-O10]	1.9
17. O=C(CCl)Nc1ccnn1Cc1cccs1 [5-O13]	0.591

FYI, the data here is from paper PMC11995724.
